Just for reference, patent US4657892A is where these values come from.

Target: α-chymotrypsin (Bos taurus, UniProt P00766, DEL14-15/DEL147-148)
Construct: purchased Serva, Heidelberg
Test: enzymatic stability against α-chymotrypsin, remaining activity assayed on guinea-pig ileum
Format: in vitro ADME
Settings: 1 mg peptide, 50 μg α-chymotrypsin, Krebs-Ringer solution, 5 hours at 37° C.
Non-standard residues stand in square brackets, D forms with d. Residues, ends and D or L forms follow the SMILES beside them.
observation type: opiate-like activity remaining after incubation with α-chymotrypsin compared to zero-value

C[C@@H](NC(=O)[C@@H](N)Cc1ccc(O)cc1)C(=O)N[C@@H](Cc1ccccc1)C(=O)NCC(=O)N[C@@H](Cc1ccc(O)cc1)C(N)=O [Substance II, Tyr--D-Ala--Phe--Gly--Tyr--NH2] (H-Y[dA]FGY-NH2)	nearly fully destroyed
C[C@@H](NC(=O)[C@@H](N)Cc1ccc(O)cc1)C(=O)N[C@@H](Cc1ccccc1)C(=O)NCC(=O)N[C@@H](Cc1ccc(O)cc1)C(=O)N1CCC[C@H]1C(=O)N[C@@H](CO)C(N)=O	nearly fully destroyed
